Recorded melting point values for a group of molecules are listed next.

Example molecules with recorded melting point:
| MOL SMILES | melting point |
| --- | --- |
| Nc1nc2cccnc2c2c1nc(O)n2Cc1ccccc1 | > 250 °C |
| C[C@@H](c1ccccc1)n1c(O)nc2c(N)nc3cccnc3c21 | 241 to 243 °C |
| CCOc1nc2c(N)nc3cccnc3c2n1CC1CCOCC1 | 197 to 200 °C |
| Nc1nc2cccnc2c2c1nc(O)n2CC1CCOCC1 | 250 to 260 °C |

Read the next record carefully.
Measured melting point, CCOc1nc2c(N)nc3cccnc3c2n1[C@@H](C)c1ccccc1 : 187 to 190 °C
